Hello, the source for this data is PubChem BioAssay (NCI), in case you need it.

Recorded growth inhibition for the following molecules
- assay info: NCI Yeast Anticancer Drug Screen. Data for the bub3 strain (AID 167)
- experimental parameters: S. cerevisiae bub3 mutant strain, at 1.2 µM, active compounds read high
Compounds without any hit were thinned out: in the full panel of roughly 79,000, 15% have a hit.
readout label: growth inhibition (%)

INSERT INTO assay_data (molecule, meas_value) VALUES
  ('[N-]=[N+]=NC1(c2ccccc2)C(=O)Nc2ccccc2C1=O (stereo not given)', -4),
  ('COC(=N)c1ccc(O)c(C)c1', -3),
  ('CCN(CC)CCNc1ccc2nc(C)n3c4ccc(OC)cc4c(=O)c1c23', 11),
  ('CC1(c2ccccc2)O[C@@H]2C[C@H]3[C@@H]4CCC5=CC(=O)C=C[C@]5(C)[C@@]4(F)[C@@H](O)C[C@]3(C)[C@]2(C(=O)CO)O1 (stereo not given in full)', -3),
  ('O=C(c1cc(=O)c2ccc(O)cc2o1)c1ccc(Cl)cc1Cl', -16),
  ('Nc1ccc2c(c1)C(=O)c1c(F)cccc1-2', -11),
  ('COC(=O)c1ccccc1N=NNc1cccc(SC)c1', 12),
  ('CCOC(=O)/C(=C/c1cccc(Cl)c1)N(CC)CC', 30),
  ('OC1(c2ccccc2)C2CC=CC2C1(c1ccccc1)c1ccccc1 (stereo not given)', 0),
  ('CNC(=S)N/N=C(/C)CCC/C(C)=N/NC(=S)NC', 43),
  ('CC(=O)O[C@H]1CC[C@@]2(C)C(=CC[C@@H]3C2CC[C@]2(C)C(=O)NC(=O)CC32)C1 (stereo not given in full)', -14),
  ('CN(C)CC1=Nc2cccc3cccc(c23)N1', -5),
  ('COC(=O)C(=O)c1c(-c2ccc(Cl)c(Cl)c2)[nH]c2[nH]n(-c3ccccc3)c(=O)c2c1=O', -3),
  ('O=C1C(CCSc2ccccc2)C(=O)N(c2ccccc2)C1c1ccccc1 (stereo not given)', 7),
  ('O=C(NCCCCN1CC2CCCC2C1)C(C1CCCCC1)C1CCCCC1 (stereo not given)', 10),
  ('COc1ccc(C(C)c2cc3c(cc2OC(C)O)OCO3)cc1 (stereo not given)', 0),
  ('C=C(C(=O)OC)N1C(=O)CC(C)C1=O (stereo not given)', 10),
  ('COC1/C=C\C=C(/C)C(=O)NC2=CC(=O)C(=O)C(=C2O)CC(C)CC(OC)C(O)C(C)/C=C(\C)C1OC(N)=O (stereo not given)', -6),
  ('CC1CCN(CCC(=O)c2ccc([N+](=O)[O-])cc2)CC1', -2),
  ('CCCCCCCCNCCCCCCCC', 33),
  ('C/C1=C/C2OC(=O)C3(C)C2C(CC2(C)OC1=CC2=O)OC3(O)C(C)C (stereo not given)', -8),
  ('CC(C)(CN1CCCCC1)C(=O)CC(SCCS(=O)(=O)O)c1ccccc1 (stereo not given)', -1),
  ('O=C(Cc1ccccc1)NNc1nc(NNC(=O)c2ccncc2)nc(Nc2ccc(Cl)cc2)n1', -3),
  ('O=C1/C(=C/c2ccc(Cl)c(Cl)c2)CNC/C1=C\c1ccc(Cl)c(Cl)c1', -8),
  ('CCC(C)(C)c1ccc(Oc2ccccc2)c(N)c1', -10),
  ('CC1=CC(=C(c2ccc(N)c(C)c2)c2ccc(N)c(C)c2)C=CC1=N', 12),
  ('Cc1ccccc1NC(=O)c1c(C)oc2c1C(=O)c1ccccc1C2=O', -57),
  ('CC(/C=C/c1ccc([N+](=O)[O-])o1)=N/N1CC(CN2CCOCC2)OC1=O (stereo not given)', -6),
  ('CC(CC/C(=N/O)c1ccccc1)(CC/C(=N\O)c1ccccc1)[N+](=O)[O-] (stereo not given)', -6),
  ('CCCN=Cc1cc(Cc2ccc(O)c(C=NCCC)c2)ccc1O', 64),
  ('Cc1ccc(NC(=O)CCC(=O)C(C)C(=O)c2ccccc2)c(C)c1 (stereo not given)', -1),
  ('CC(=O)CCC1=C(C)C(=O)C(=O)C(C)=C1O', -5),
  ('O=C1SS(=O)c2ccccc21 (stereo not given)', -5),
  ('CS(=O)(=O)O.[Ag]', 80),
  ('O=C(O)/C=C\C(=O)Nc1ccc2c(c1)Cc1cc(Cl)ccc1-2', -4),
  ('O=C1C[C@H]2[C@H](c3ccc(Br)cc3)[C@H]3C(=O)c4ccccc4NC(=O)[C@@H]3[C@@]2(O)c2ccccc2N1', 3),
  ('Cc1cccc(C)c1NC(=O)CCC(=O)C(C)C(=O)c1ccc(O)cc1 (stereo not given)', -2),
  ('CC(C)(CN1CCCCC1)C(=O)/C=C/c1c(Cl)cccc1Cl', 27),
  ('COc1ccc(-c2cc(-c3cc(C)cc(Cl)c3O)nc3[nH]c(=S)[nH]c(=S)c23)cc1', 2),
  ('O=C1c2cccc3cccc(c23)C(=O)N1O', 4),
  ('N#CC1OB(O)c2ccccc21 (stereo not given)', -11),
  ('CCCCCCCCSC1=C(Cl)C(=O)C(OC)=C(OC)C1=O', -40),
  ('CCC(C)COC(=O)Nc1cccc(Cl)c1 (stereo not given)', -2),
  ('O=S(=O)(NC1CCCC(c2ccccc2)C1)c1ccccc1 (stereo not given)', 1),
  ('CC1=C(C)C(=O)C2=C(OCCO2)C1=O', 0);
